# Assayed System: human DLL3 protein expressed on CHO-K1 recombinant cells (human DLL3 extracellular segment fused to EpCAM transmembrane and intracellular regions) (human) (UniProt Q9NYJ7)
# Sequence (Q9NYJ7 other isoform, or with tags, fused parts or gaps limits assumed): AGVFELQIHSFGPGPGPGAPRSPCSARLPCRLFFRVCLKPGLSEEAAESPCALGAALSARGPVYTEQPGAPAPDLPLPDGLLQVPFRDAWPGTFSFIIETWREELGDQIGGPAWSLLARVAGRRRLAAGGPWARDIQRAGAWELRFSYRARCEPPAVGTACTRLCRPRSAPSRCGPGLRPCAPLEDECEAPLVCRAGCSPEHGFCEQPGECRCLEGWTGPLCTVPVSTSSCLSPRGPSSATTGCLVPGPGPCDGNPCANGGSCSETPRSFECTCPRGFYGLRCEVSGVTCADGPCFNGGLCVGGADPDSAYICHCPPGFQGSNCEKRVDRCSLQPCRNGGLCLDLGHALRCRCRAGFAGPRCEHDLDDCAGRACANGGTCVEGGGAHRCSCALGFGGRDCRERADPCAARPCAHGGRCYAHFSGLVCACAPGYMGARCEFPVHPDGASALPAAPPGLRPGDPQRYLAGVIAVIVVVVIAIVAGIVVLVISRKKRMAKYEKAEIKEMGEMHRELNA
# Assay Method Text: FACS, CHO-K1 hDLL3 cells, 4 nM antibody
Value Kind: MFI (MFI)
Kindly provide the numeric value in MFI only, without the unit symbol.

{"Binder": "Hab014VL3VH1-hFc (scFv, part only; not given: VL-VH linker and human IgG1 Fc, V domains shown, not shown: another chain or arm of the molecule; a dimerising Fc or GST; small tags and cut ends) VL: DIVMTQSPDSLAVSLGERATINCKASEDIYNRLAWYQQKPGQTPKLLISGATSLETGVPDRFSGSGSGKDFTLTISSLQAEDVAVYYCQQYWSLPWTFGGGTKVEIK VH: EVQLVQSGAEVKKPGASVKVSCKASGYTFTDYYMNWVRQAPGQRLEWMGDINPNHGDTGYNQKFTGRVTITVDKSASTAYMELSSLRSEDTAVYYCARNFFYYGTTYGWYFDVWGQGTTVTVSS", "Readout Units": "MFI", "MFI": 15300}

Can you share its MFI? I mean this binder: Hab013VL2VH2a-hFc (scFv, part only; not given: scFv linker and human IgG1 Fc, V domains shown, not shown: another chain or arm of the molecule; a dimerising Fc or GST; small tags and cut ends) VL: EIVLTQSPATLSLSPGERATLSCRASKSVSTSGFSYMHWYQQKPGQPPRLLIYLASNLESGIPARFSGSGSGTDFTLTISSLEPEDFAVYYCQHSRELPFTFGQGTKLEIK VH: EVQLVQSGAEVKKPGSSVKVSCKASGYAFSNYWINWVRQAPGQGLEWMGQINPGDGDTIYNSKFKGRVTITADKSTSTAYMELSSLRSEDTAVYYCEREGRNYGDFAYWGQGTTVTVSS
14900

Can you share its MFI? I mean this binder: Hab014VL2VH1-hFc (scFv, part only; not given: scFv linker and human IgG1 Fc, V domains shown, not shown: another chain or arm of the molecule; a dimerising Fc or GST; small tags and cut ends) VL: DIQMTQSPSSLSASVGDRVTITCKASEDIYNRLAWYQQKPGKVPKLLISGATSLETGVPSRFSGSGSGKDFTLTISSLQPEDVATYYCQQYWSLPWTFGGGTKVEIK VH: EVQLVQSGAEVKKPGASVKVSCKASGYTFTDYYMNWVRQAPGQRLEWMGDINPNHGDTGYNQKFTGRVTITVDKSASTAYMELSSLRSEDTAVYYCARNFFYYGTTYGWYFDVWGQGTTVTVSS
15400

Can you share its MFI? I mean this binder: Hab006VL4VH1-hFc (scFv, part only; not given: scFv linker and human IgG1 Fc, V domains shown, not shown: another chain or arm of the molecule; a dimerising Fc or GST; small tags and cut ends) VL: DIVMTQSPDSLAVSLGERATINCRATKSISKYLAWYQQKPGQTNKLLIFSGSTLQSGVPDRFSGSGSGTDFTLTISSLQAEDVAVYYCQQHHEYPYTFGGGTKVEIK VH: EVQLVQSGAEVKKPGASVKVSCKASGYTFTSYWMHWVRQAPGQRLEWMGVIDPSDSLANYNQEFKGRVTITVDTSASTAYMELSSLRSEDTAVYYCARDSTVVAPMDYWGQGTTVTVSS
13600

Can you share its MFI? I mean this binder: Hab008L1H5-hFc (scFv, part only; not given: VL-VH linker and human IgG1 Fc, V domains shown, not shown: another chain or arm of the molecule; a dimerising Fc or GST; small tags and cut ends) VL: DIQMTQSPSSLSASVGDRVTITCKASQNVGTAVAWYQQKPGKSPKLLIFSASIRYTGVPSRFSGSGSGTDFTLTISSLQPEDFATYYCQQYSSSPYTFGGGTKVEIK VH: EVQLVQSGAEVKKPGASVKVSCKASGYTFTDYYMNWVRRAPGQRLEWMGIINPYNGGTSYNQKFRGRVTITVDKSASTAYMELSSLRSEDTAVYYCSRYDYDYDVEGAMDYWGQGTTVTVSS
6530

Can you share its MFI? I mean this binder: Hab006VL1VH4-hFc (scFv, part only; not given: VL-VH linker and human IgG1 Fc, V domains shown, not shown: another chain or arm of the molecule; a dimerising Fc or GST; small tags and cut ends) VL: DIQMTQSPSSLSASVGDRVTITCRATKSISKYLAWYQQKPGKAPKLLIFSGSTLQSGVPSRFSGSGSGTDFTLTISSLQPEDFATYYCQQHHEYPYTFGGGTKVEIK VH: EVQLVQSGAEVKKPGASVKVSCKASGYTFTSYWMHWVRQAPGQRLEWMGVIDPSDSLANYNQEFKGRVTLTVDTSSSTAYMELSSLRSEDTAVYYCARDSTVVAPMDYWGQGTTVTVSS
12700

Can you share its MFI? I mean this binder: Hab008L1H2a-hFc (scFv, part only; not given: VL-VH linker and human IgG1 Fc, V domains shown, not shown: another chain or arm of the molecule; a dimerising Fc or GST; small tags and cut ends) VL: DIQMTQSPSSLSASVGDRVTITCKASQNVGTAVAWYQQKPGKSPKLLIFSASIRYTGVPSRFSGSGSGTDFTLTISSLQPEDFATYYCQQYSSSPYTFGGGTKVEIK VH: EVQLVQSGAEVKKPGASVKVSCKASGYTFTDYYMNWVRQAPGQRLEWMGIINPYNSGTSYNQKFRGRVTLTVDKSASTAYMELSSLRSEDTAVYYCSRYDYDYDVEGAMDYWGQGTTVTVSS
7440

Can you share its MFI? I mean this binder: Hab015VL4VH1a-hFc (scFv, part only; not given: scFv linker and human IgG1 Fc, V domains shown, not shown: another chain or arm of the molecule; a dimerising Fc or GST; small tags and cut ends) VL: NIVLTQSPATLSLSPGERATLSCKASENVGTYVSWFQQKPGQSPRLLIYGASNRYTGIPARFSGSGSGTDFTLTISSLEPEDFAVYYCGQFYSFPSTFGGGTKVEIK VH: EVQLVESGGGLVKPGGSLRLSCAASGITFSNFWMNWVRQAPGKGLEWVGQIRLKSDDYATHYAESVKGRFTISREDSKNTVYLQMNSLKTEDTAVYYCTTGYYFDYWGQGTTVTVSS
7920

Can you share its MFI? I mean this binder: Hab006VL4VH2-hFc (scFv, part only; not given: scFv linker and human IgG1 Fc, V domains shown, not shown: another chain or arm of the molecule; a dimerising Fc or GST; small tags and cut ends) VL: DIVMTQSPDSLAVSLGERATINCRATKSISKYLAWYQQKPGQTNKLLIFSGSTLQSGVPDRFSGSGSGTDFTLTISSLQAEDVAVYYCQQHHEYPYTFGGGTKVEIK VH: EVQLVQSGAEVKKPGASVKVSCKASGYTFTSYWMHWVRQAPGQRLEWMGVIDPSDSLANYNQEFKGRVTLTVDTSASTAYMELSSLRSEDTAVYYCARDSTVVAPMDYWGQGTTVTVSS
13800

Can you share its MFI? I mean this binder: Hab015VL5VH1b-hFc (scFv, part only; not given: VL-VH linker and human IgG1 Fc, V domains shown, not shown: another chain or arm of the molecule; a dimerising Fc or GST; small tags and cut ends) VL: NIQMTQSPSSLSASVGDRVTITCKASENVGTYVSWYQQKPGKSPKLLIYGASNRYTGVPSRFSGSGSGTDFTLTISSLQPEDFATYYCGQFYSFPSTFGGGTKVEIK VH: EVQLVESGGGLVKPGGSLRLSCAASGITFSNFWMNWVRQAPGKGLEWVGQIRLKSEDYATHYAESVKGRFTISREDSKNTVYLQMNSLKTEDTAVYYCTTGYYFDYWGQGTTVTVSS
10300
